These data points were gathered from paper PMC8809517.

# TEST SYSTEM: T1, GFP-9S library array, motif 4 ND N98T;D124C (synthetic construct, N98T;D124C)
# T1 chain: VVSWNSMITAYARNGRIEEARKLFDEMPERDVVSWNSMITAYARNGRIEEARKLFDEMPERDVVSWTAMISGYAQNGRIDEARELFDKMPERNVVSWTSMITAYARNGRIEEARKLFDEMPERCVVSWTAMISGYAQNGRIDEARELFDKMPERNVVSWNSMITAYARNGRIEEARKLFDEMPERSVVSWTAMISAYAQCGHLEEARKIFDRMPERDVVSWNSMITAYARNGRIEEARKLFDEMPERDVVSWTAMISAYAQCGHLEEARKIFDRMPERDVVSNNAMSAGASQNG
# PROTOCOL DESCRIPTION: high-throughput RNA pulldown from lysate on Ni-NTA beads; HRP: 50 mM Tris pH 8, 150 mM NaCl, 1 mM beta-mercaptoethanol, 50 ug/ml BSA, 3 ug/ml yeast RNA, 0.5% heparin; ITC and FP: Tris pH 8, 200 mM KCl, 5% glycerol; MST: 50 mM Tris pH 8, 200 mM NaCl, 1 mM DTT, BSA, heparin, 0.05% Tween 20
# CONDITIONS: tags: N-terminal His-eGFP; label: 5' Cy5
Recorded measurements of pKd, one per entry
Please express pKd as -log10 of the molar concentration.

[[record]]
binder = "AUUAGACGUGA (ssRNA) [Cy5-rpoA-G]"
test_value = 8.09


The record that follows has no pKd shown yet.
QUERY: Which pKd is reported for this binder? AUUACACGUGA (ssRNA) [Cy5-rpoA]
RESULT: 6.48
